# assaySummary: Single dose intravenous infusion in rats, toxicokinetic parameters in serum
# Type: in vivo, Sprague-Dawley rats
# assayContext: Sprague-Dawley, rat; male rats serum, 0.5 mg/kg, single IV infusion over 5 min, mean; read-out: Vz (volume of distribution per kg body weight)
property: Vd (L/kg)
Numbers only, in L/kg.

In: Data request, read-out Vd, for Cc1[nH]c2ccc(F)cc2c1-c1nc2c3cccnc3c3ncccc3c2[nH]1 [Compound I-hydrate Form 2]
Out: 8.04

###

# assaySummary: Single dose intravenous infusion in rats, toxicokinetic parameters in serum
# Format: in vivo, Sprague-Dawley rats
# assayContext: Sprague-Dawley, rat; male rats serum, 0.5 mg/kg, single IV infusion over 5 min, mean; read-out: Cl (total body clearance per kg body weight) (converted)
property: clearance (mL/min/kg)
Answers are plain numbers, in mL/min/kg.

In: Data request, read-out clearance, for Cc1[nH]c2ccc(F)cc2c1-c1nc2c3cccnc3c3ncccc3c2[nH]1 [Compound I-hydrate Form 2]
Out: 64

###

# assaySummary: Single dose intravenous infusion in rats, toxicokinetic parameters in serum
# Format: in vivo, Sprague-Dawley rats
# assayContext: Sprague-Dawley, rat; male rats serum, 0.5 mg/kg, single IV infusion over 5 min, mean; read-out: AUC0-Tlast
property: AUC(0-t) (µg·h/mL)
Give bare numbers, in µg·h/mL.

In: Data request, read-out AUC(0-t), for Cc1[nH]c2ccc(F)cc2c1-c1nc2c3cccnc3c3ncccc3c2[nH]1 [Compound I-hydrate Form 2]
Out: 0.1

###

# assaySummary: Single dose intravenous infusion in rats, toxicokinetic parameters in serum
# Type: in vivo, Sprague-Dawley rats
# assayContext: Sprague-Dawley, rat; male rats serum, 0.5 mg/kg, single IV infusion over 5 min, mean; read-out: T1/2 (Terminal elimination half-life) (converted)
property: half-life (h)
Answers are plain numbers, in h.

In: Data request, read-out half-life, for Cc1[nH]c2ccc(F)cc2c1-c1nc2c3cccnc3c3ncccc3c2[nH]1 [Compound I-hydrate Form 2]
Out: 1.45

###

# assaySummary: Single dose intravenous infusion in rats, toxicokinetic parameters in serum
# Assay type: in vivo, Sprague-Dawley rats
# assayContext: Sprague-Dawley, rat; male rats serum, 0.5 mg/kg, single IV infusion over 5 min, mean; read-out: Cmax (maximum plasma concentration)
property: Cmax (ng/mL)
Give bare numbers, in ng/mL.

In: Data request, read-out Cmax, for Cc1[nH]c2ccc(F)cc2c1-c1nc2c3cccnc3c3ncccc3c2[nH]1 [Compound I-hydrate Form 2]
Out: 1750

###

# assaySummary: Single dose intravenous infusion in rats, toxicokinetic parameters in serum
# Type: in vivo, Sprague-Dawley rats
# assayContext: Sprague-Dawley, rat; male rats serum, 0.5 mg/kg, single IV infusion over 5 min, mean
# Protocol: Compound I-hydrate Form 2 was formulated in 23% Solutol HS-15 and 70% PG and diluted with Lactated Ringer Solution to a concentration of 0.061 mg/mL. […] Dose volume was 10 mL/Kg and the infusion rate was 120 mL/kg/hr. Following dosing, a series of 12 blood samples (approximately 0.2 mL each) were collected from the rats in the first 72 hours. […] Mean toxicokinetic parameters were calculated (Table 7).
property: AUC(0-inf)
Number plus unit, in that order.

In: Data request, read-out AUC(0-inf), for Cc1[nH]c2ccc(F)cc2c1-c1nc2c3cccnc3c3ncccc3c2[nH]1 [Compound I-hydrate Form 2]
Out: 130 ng·h/mL

###

# assaySummary: Single dose intravenous infusion in rats, toxicokinetic parameters in serum
# Type: in vivo, Sprague-Dawley rats
# assayContext: Sprague-Dawley, rat; male rats serum, 0.5 mg/kg, single IV infusion over 5 min, mean; read-out: Tmax (time to maximum plasma concentration)
property: Tmax (h)
Numbers only, in h.

In: Data request, read-out Tmax, for Cc1[nH]c2ccc(F)cc2c1-c1nc2c3cccnc3c3ncccc3c2[nH]1 [Compound I-hydrate Form 2]
Out: 0
